# Measured On: recombinant human GSK3β (Homo sapiens, UniProt P49841)
# Sequence (P49841 whole entry): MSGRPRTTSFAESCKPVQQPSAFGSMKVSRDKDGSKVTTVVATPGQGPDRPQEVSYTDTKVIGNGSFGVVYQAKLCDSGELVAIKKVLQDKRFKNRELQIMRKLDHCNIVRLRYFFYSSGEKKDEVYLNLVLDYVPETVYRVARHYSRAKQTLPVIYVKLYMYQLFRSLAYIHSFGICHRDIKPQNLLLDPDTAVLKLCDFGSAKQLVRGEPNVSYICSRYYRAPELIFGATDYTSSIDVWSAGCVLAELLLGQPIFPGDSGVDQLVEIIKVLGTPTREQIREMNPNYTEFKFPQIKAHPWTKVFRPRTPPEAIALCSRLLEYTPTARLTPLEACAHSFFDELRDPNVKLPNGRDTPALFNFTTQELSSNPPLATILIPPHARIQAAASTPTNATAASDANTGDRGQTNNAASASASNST
# Assay Protocol: Determination of GSK3β activity in Scintillation Proximity Assay
# Recorded Conditions: Km of ATP 3 μM used to calculate Ki; 1 μmol/L ATP; read-out: mean GSKβ Ki value
Property Name: Ki (nM)

Nc1ncc(-c2ccc(C(=O)N3CCNCC3)cc2)nc1-c1nc2cnccc2o1 [Example 14]: 3.2
CN1CCN(C(=O)c2ccc(-c3cnc(N)c(-c4nc5cnccc5o4)n3)cc2)CC1 [Example 1]: 2.3
